From: BigSolDB 2.1

run parameters: in DMF, 318.15 K
reported property: solubility (mole fraction)
No unit in the answer, please; the number alone is enough.

**Q:** Fill in: solubility (mole fraction) of CN1CCC(N(Cc2cccs2)c2ccccc2)CC1 is ___
**A:** 0.0158

====

run parameters: in DMF, 308.15 K
reported property: solubility (mole fraction)
// keep it numeric: no unit symbol after the value

**Q:** Look up solubility (mole fraction): CN1CCC(N(Cc2cccs2)c2ccccc2)CC1
**A:** 0.0132

====

run parameters: in water, 283.15 K
reported property: solubility (mole fraction)
// no unit, no text: just the number

**Q:** solubility (mole fraction) for CN1CCC(N(Cc2cccs2)c2ccccc2)CC1 ?
**A:** 2.84e-05
